// provenance: patent US20220177604A1

# tested on: T1, recombinant Motavizumab human IgE (rMota-hIgE) (human, UniProt P01854 1-428)
# T1 construct: also called Recombinant IgE (argenx)
# T1 sequence (P01854 other isoform, or with tags, fused parts or gaps limits assumed, form in doubt): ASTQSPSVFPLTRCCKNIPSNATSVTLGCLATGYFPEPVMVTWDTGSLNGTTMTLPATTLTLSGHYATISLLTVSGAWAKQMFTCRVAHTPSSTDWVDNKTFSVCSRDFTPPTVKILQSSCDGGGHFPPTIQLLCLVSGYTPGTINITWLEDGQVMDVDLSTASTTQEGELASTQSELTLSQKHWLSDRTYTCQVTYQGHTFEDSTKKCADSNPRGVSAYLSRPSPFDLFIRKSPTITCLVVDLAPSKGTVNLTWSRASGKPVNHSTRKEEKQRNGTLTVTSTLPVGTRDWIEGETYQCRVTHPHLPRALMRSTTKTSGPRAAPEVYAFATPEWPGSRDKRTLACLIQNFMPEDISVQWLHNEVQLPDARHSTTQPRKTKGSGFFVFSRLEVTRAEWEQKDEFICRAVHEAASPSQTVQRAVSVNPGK
# assay protocol: hIgE binding ELISA
assay endpoint: Ratio EC50 pH 7.4/5.5

binder	result
OmaVH15G55H - VL3D28HS31H (antibody, V domains shown) VH: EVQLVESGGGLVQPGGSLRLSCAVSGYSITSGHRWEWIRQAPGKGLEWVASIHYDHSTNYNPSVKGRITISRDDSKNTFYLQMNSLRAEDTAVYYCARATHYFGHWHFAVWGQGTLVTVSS VL: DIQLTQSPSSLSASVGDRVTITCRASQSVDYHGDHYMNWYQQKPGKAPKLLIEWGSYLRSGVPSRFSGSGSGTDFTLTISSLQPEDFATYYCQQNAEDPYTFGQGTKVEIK	0.67
